Ki data for Carbonic anhydrase 9 (Homo sapiens) follow.
parameter: Ki (nM)

smiles.code	system.tested	endpoint.value
Cc1nonc1S(N)(=O)=O	Carbonic anhydrase 9 (Homo sapiens)	7.9
NS(=O)(=O)c1ccc(-c2nonc2[N+](=O)[O-])cc1	Carbonic anhydrase 9 (Homo sapiens)	54.7
N#Cc1c(COc2ccc(S(N)(=O)=O)cc2)no[n+]1[O-]	Carbonic anhydrase 9 (Homo sapiens)	11.3

----------
Record set of pKi for target or system UniProt Q16790.
pKi: −log10 of the molar value.

smiles.code	system.tested	pKi
NS(=O)(=O)c1ccc(-c2c(Sc3ccccc3)no[n+]2[O-])cc1	UniProt Q16790	5.30
NS(=O)(=O)c1nonc1-c1ccccc1	UniProt Q16790	8.20
NS(=O)(=O)c1ccc(-c2c(S(=O)(=O)c3ccccc3)no[n+]2[O-])cc1	UniProt Q16790	7.46
NS(=O)(=O)c1ccc(OCc2nonc2-c2ccccc2)cc1	UniProt Q16790	6.96
CC(C)COc1nonc1S(N)(=O)=O	UniProt Q16790	8.41
NS(=O)(=O)c1ccc(-c2c([N+](=O)[O-])no[n+]2[O-])cc1	UniProt Q16790	7.26
COc1nonc1S(N)(=O)=O	UniProt Q16790	8.24
NS(=O)(=O)c1ccc(-c2c(Oc3ccccc3)no[n+]2[O-])cc1	UniProt Q16790	7.19
Cc1no[n+]([O-])c1S(N)(=O)=O	UniProt Q16790	8.19
NS(=O)(=O)c1nonc1Oc1ccccc1	UniProt Q16790	8.20
NC(=O)c1nonc1COc1ccc(S(N)(=O)=O)cc1	UniProt Q16790	7.30
NS(=O)(=O)c1ccc(-c2nonc2Sc2ccccc2)cc1	UniProt Q16790	7.24
